- measured.on: LpMip (Legionella pneumophila subsp. pneumophila, UniProt Q5ZXE0)
- Sequence (Q5ZXE0 21-233 limits assumed): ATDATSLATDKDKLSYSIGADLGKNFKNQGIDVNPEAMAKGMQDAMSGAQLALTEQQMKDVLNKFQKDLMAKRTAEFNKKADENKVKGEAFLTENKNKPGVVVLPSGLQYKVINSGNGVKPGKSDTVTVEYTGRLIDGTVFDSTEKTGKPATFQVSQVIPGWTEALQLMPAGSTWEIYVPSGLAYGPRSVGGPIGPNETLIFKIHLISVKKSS
- assay.remarks: biochemical
- Assay type: binding
Each entry below carries its reported Ki.
outcome.measure: Ki (nM)

C[C@@H](c1ccccn1)N1C[C@H](CO)[C@H]2CCC[C@@H](C1=O)N2S(=O)(=O)c1ccc2ncsc2c1 [25b] ... 237
C=C[C@H]1CN([C@@H](C)c2ccccn2)C(=O)[C@@H]2CCC[C@H]1N2S(=O)(=O)c1cc(Cl)cc(Cl)c1 ... 171
C=C[C@H]1CN([C@@H](C)c2ccccn2)C(=O)[C@@H]2CCC[C@H]1N2S(=O)(=O)c1ccc2ncsc2c1 ... 366
C=C[C@H]1CN([C@@H](C)C(=O)O)C(=O)[C@@H]2CCC[C@H]1N2S(=O)(=O)c1cc(Cl)cc(Cl)c1 [21b] ... 284
